test system: rabbit reticulocyte lysate system; test: In vitro translation efficiency of capped luciferase mRNA with 31-base poly(A) tail, method II transcripts; format: biochemical; conditions: experiment 4
value.type: Translation efficiency in comparison to m^7GpppG-LUC-(A)31 mRNA, Experiment No. 4

compound	observed.value
CO[C@H]1[C@@H](O)[C@H]([n+]2cn(C)c3c(=O)[nH]c(N)nc32)O[C@@H]1COP(=O)([O-])OP(=O)(O)OP(=O)(O)OC[C@H]1O[C@@H](n2cnc3c(=O)[nH]c(N)nc32)[C@H](O)[C@@H]1O [m2^7,3′-OGpppG, 7-methyl(3′-O-methyl)GpppG, reference compound]	1.77
[BH3-]P(=O)(OC[C@H]1O[C@@H](n2cnc3c(=O)[nH]c(N)nc32)[C@H](O)[C@@H]1O)OP(=O)(O)OP(=O)(O)OC[C@H]1O[C@@H](n2c[n+](C)c3c(=O)[nH]c(N)nc32)[C@H](OC)[C@@H]1O (single isomer, unassigned) [m2^7,2′-OGpppBH3G (D1), m2^7,2′-OGpppBH3G]	2.38
CO[C@@H]1[C@H](O)[C@@H](COP(=O)([O-])OP(O)(=S)OP(=O)(O)OC[C@H]2O[C@@H](n3cnc4c(=O)[nH]c(N)nc43)[C@H](O)[C@@H]2O)O[C@H]1[n+]1cn(C)c2c(=O)[nH]c(N)nc21 (single isomer, unassigned) [m2^7,2′-OGppSpG (D2), m2^7,2′-OGppSpG, reference compound]	3.20
[BH3-]P(=O)(OP(=O)(O)OCC1OC(n2cnc3c(=O)[nH]c(N)nc32)C(O)C1O)OP(=O)(O)OCC1OC(n2c[n+](C)c3c(=O)[nH]c(N)nc32)C(O)C1O (single isomer, unassigned) [m^7GppBH3pG (D1), m^7GppBH3pG]	1.65

* * *

Listing of entries alongside the reported Cap analog-eIF4E affinity (KAS).
target: eIF4E (Mus musculus); experiment: Binding affinity of cap analogs to eIF4E by fluorescence titration; settings: Table 3; equilibrium association constant
Sequence (P63073 28-217 limits assumed): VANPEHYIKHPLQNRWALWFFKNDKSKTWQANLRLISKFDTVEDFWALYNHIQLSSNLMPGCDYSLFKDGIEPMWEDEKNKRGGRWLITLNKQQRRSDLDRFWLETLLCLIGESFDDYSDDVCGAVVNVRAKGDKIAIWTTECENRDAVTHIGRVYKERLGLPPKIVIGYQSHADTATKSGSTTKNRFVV
value.type: Cap analog-eIF4E affinity (KAS)

compound	observed.value
Cn1c[n+]([C@@H]2O[C@H](COP(=O)(O)OP(=O)(O)OP(=O)(O)OC[C@H]3O[C@@H](n4cnc5c(=O)[nH]c(N)nc54)[C@H](O)[C@@H]3O)[C@@H](O)[C@H]2O)c2nc(N)[nH]c(=O)c21 [m^7GpppG, m^7G(5′)ppp(5′)G, reference compound]	9.4 ± 0.4 μM^−1
CO[C@H]1[C@@H](O)[C@H]([n+]2cn(C)c3c(=O)[nH]c(N)nc32)O[C@@H]1COP(=O)([O-])OP(=O)(O)OP(=O)(O)OC[C@H]1O[C@@H](n2cnc3c(=O)[nH]c(N)nc32)[C@H](O)[C@@H]1O [m2^7,3′-OGpppG, 7-methyl(3′-O-methyl)GpppG, reference compound]	10.2 ± 0.3 μM^−1

* * *

test system: rabbit reticulocyte lysate system; assay: In vitro translation efficiency of capped luciferase mRNA with 31-base poly(A) tail, method II transcripts; assay type: biochemical; conditions: experiment 3
Listing of entries alongside the reported Translation efficiency in comparison to m^7GpppG-LUC-(A)31 mRNA, Experiment No. 3.
value.type: Translation efficiency in comparison to m^7GpppG-LUC-(A)31 mRNA, Experiment No. 3

compound	observed.value
CO[C@@H]1[C@H](O)[C@@H](COP(=O)(O)OP(O)(=[Se])OP(=O)(O)OC[C@H]2O[C@@H](n3cnc4c(=O)[nH]c(N)nc43)[C@H](O)[C@@H]2O)O[C@H]1n1c[n+](C)c2c(=O)[nH]c(N)nc21 (single isomer, unassigned) [m2^7,2′-OGppSepG (D2), m2^7,2′-OGppSepG]	2.09
Nc1nc2c(ncn2[C@@H]2O[C@H](COP(=O)(O)OP(=O)(O)OP(=O)(O)OC[C@H]3O[C@@H](n4cnc5c(N)ncnc54)[C@H](O)[C@@H]3O)[C@@H](O)[C@H]2O)c(=O)[nH]1 [ApppG, reference compound]	0.14
Cn1c[n+]([C@@H]2O[C@H](COP(=O)(O)OP(=O)(O)OP(=O)(O)OC[C@H]3O[C@@H](n4cnc5c(=O)[nH]c(N)nc54)[C@H](O)[C@@H]3O)[C@@H](O)[C@H]2O)c2nc(N)[nH]c(=O)c21 [m^7GpppG, m^7G(5′)ppp(5′)G, reference compound]	1.00
CO[C@@H]1[C@H](O)[C@@H](COP(=O)(O)OP(O)(=[Se])OP(=O)(O)OC[C@H]2O[C@@H](n3cnc4c(=O)[nH]c(N)nc43)[C@H](O)[C@@H]2O)O[C@H]1n1c[n+](C)c2c(=O)[nH]c(N)nc21 (single isomer, unassigned) [m2^7,2′-OGppSepG (D1), m2^7,2′-OGppSepG]	2.16
CO[C@H]1[C@@H](O)[C@H]([n+]2cn(C)c3c(=O)[nH]c(N)nc32)O[C@@H]1COP(=O)([O-])OP(=O)(O)OP(=O)(O)OC[C@H]1O[C@@H](n2cnc3c(=O)[nH]c(N)nc32)[C@H](O)[C@@H]1O [m2^7,3′-OGpppG, 7-methyl(3′-O-methyl)GpppG, reference compound]	1.61

// provenance: patent US8519110B2
